As shown below, each of these binders has a reported Kd value.
Biological target: 10E8 antibody
Assay: SPR

>  <Binder>
10E8_T93v2RT12-5 (designed binder) GKADEVREKARRRMEQAVEEFKRRLRQFEEKVKQKEPRDDEINRWIDIVKKKADEAKKRVEEVGDQAADEAAQLGNDPNVNWFDITQVLWDVKKLTEKAINDIDDALKKMKDWLESGLEHHHHHH

>  <Unit annotation>
nM

>  <Kd>
0.022

$$$$
>  <Binder>
10E8_T117v2-4 (designed binder) NAMQGIHFRRHYVRHLPKEVSQNDIIKALASPLINDGMVVSDFADHVITREQNFPTGLPVEPVGVAIPHTDSKYVRQNAISVGILAEPVNFEDAGGEPDPVPVRVVFMLALGNWFDISRVLWWIKAVIQDEDFMQQLLVMNDDEIYQSIYTRISELEHHHHHH

>  <Unit annotation>
nM

>  <Kd>
0.59

$$$$
>  <Binder>
10E8_T117v2-1_RSF1 (designed binder) NAMAGIVFRKHYVRHLGKTVTQNEIIRALAAPLISDGMVVKDFADHVIKREEQNPTGLPVQPVGVAIPHTDSKYVYYNAISVGILQEPVAFEDAGGDGRPVPVRVVFMLALGNWFDITNVLWWIKAVIQDDEFMKRLLYMTDDKIYESIRKRIYDLE

>  <Unit annotation>
nM

>  <Kd>
0.05

$$$$
>  <Binder>
10E8_T117v2-1 (designed binder) NAMQGIHFRRHYVRHLPKEVSQNDIIKALASPLINDGMVVSDFADHVITREQNFPTGLPVEPVGVAIPHTDSKYVRQNAISVGILAEPVNFEDAGGEPDPVPVRVVFMLALGNWFDITNVLWWIKAVIQDEDFMQQLLVMNDDEIYQSIYTRISELEHHHHHH

>  <Unit annotation>
nM

>  <Kd>
0.082

$$$$

Each recorded value in this set is attributed to patent US9707290.
